Test: In vivo biodistribution of [^203Pb]VMT01 in B16-F10 melanoma xenograft model
Design: species or system athymic nude mice
Settings: both sexes, athymic nude, mouse, brain, intravenous, 74 KBq, total radioactivity, 0.5 h post-injection, tail vein, read-out: Biodistribution, Brain, Average
Where a SMILES comes first, the peptide text is derived from it. Bridges are numbered along the chain shown (N, C = ends). Triazole bridges read from a SMILES are 1,4-linked. Side-chain parts run from the residue outwards. [ ]: non-standard residue; d: D form. The star is where a group is joined. X1 = NC(=O)CN1CCN(CC(=O)O)CCN(CC(=O)*)CCN(CC(=O)O)CC1; Lys(N3) = [N-]=[N+]=NCCCC[C@H](N)C(=O)O; Nle = CCCC[C@H](N)C(=O)O; Pra = C#CC[C@H](N)C(=O)O; AEEA = NCCOCCOCC(=O)O
Readout: tissue uptake at 0.5 h (%ID/g)
State just the number; it will be interpreted in %ID/g.

Query: State its tissue uptake at 0.5 h for this compound: CCCC[C@H](NC(C)=O)C(=O)N[C@H]1Cc2cn(nn2)CCCC[C@@H](C(=O)N[C@@H](CCCCNC(=O)COCCOCCNC(=O)CN2CCN(CC(=O)O)CCN(CC(N)=O)CCN(CC(=O)O)CC2)C(N)=O)NC(=O)[C@H](Cc2c[nH]c3ccccc23)NC(=O)[C@H](CCCNC(=N)N)NC(=O)[C@@H](Cc2ccccc2)NC(=O)[C@H](Cc2c[nH]cn2)NC1=O [[^203Pb]VMT01, metal not drawn] (Ac-[Nle][Pra]H[dF]RW[Lys(N3)]K([AEEA-X1])-NH2; triazole 2-7)
Result: 0.06

====

Assay: In vivo biodistribution of [^203Pb]VMT01 in B16-F10 melanoma xenograft model
Design: species or system athymic nude mice
Conditions: both sexes, athymic nude, mouse, skin, intravenous, 74 KBq, total radioactivity, 1.5 h post-injection, tail vein, read-out: Biodistribution, Skin, Average
Where a SMILES comes first, the peptide text is derived from it. Bridges are numbered along the chain shown (N, C = ends). Triazole bridges read from a SMILES are 1,4-linked. Side-chain parts run from the residue outwards. [ ]: non-standard residue; d: D form. The star is where a group is joined. X1 = NC(=O)CN1CCN(CC(=O)O)CCN(CC(=O)*)CCN(CC(=O)O)CC1; Lys(N3) = [N-]=[N+]=NCCCC[C@H](N)C(=O)O; Nle = CCCC[C@H](N)C(=O)O; Pra = C#CC[C@H](N)C(=O)O; AEEA = NCCOCCOCC(=O)O
Readout: tissue uptake at 1.5 h (%ID/g)
Field format: number, assumed %ID/g, no unit text.

Query: Note tissue uptake at 1.5 h for the compound shown: CCCC[C@H](NC(C)=O)C(=O)N[C@H]1Cc2cn(nn2)CCCC[C@@H](C(=O)N[C@@H](CCCCNC(=O)COCCOCCNC(=O)CN2CCN(CC(=O)O)CCN(CC(N)=O)CCN(CC(=O)O)CC2)C(N)=O)NC(=O)[C@H](Cc2c[nH]c3ccccc23)NC(=O)[C@H](CCCNC(=N)N)NC(=O)[C@@H](Cc2ccccc2)NC(=O)[C@H](Cc2c[nH]cn2)NC1=O [[^203Pb]VMT01, metal not drawn] (Ac-[Nle][Pra]H[dF]RW[Lys(N3)]K([AEEA-X1])-NH2; triazole 2-7)
Result: 0.27

====

Test: In vivo biodistribution of [^203Pb]VMT01 in B16-F10 melanoma xenograft model
Parameters: species or system athymic nude mice
Conditions: both sexes, athymic nude, mouse, liver, intravenous, 74 KBq, total radioactivity, 6 h post-injection, tail vein, read-out: Biodistribution, Liver, Average
Where a SMILES comes first, the peptide text is derived from it. Bridges are numbered along the chain shown (N, C = ends). Triazole bridges read from a SMILES are 1,4-linked. Side-chain parts run from the residue outwards. [ ]: non-standard residue; d: D form. The star is where a group is joined. X1 = NC(=O)CN1CCN(CC(=O)O)CCN(CC(=O)*)CCN(CC(=O)O)CC1; Lys(N3) = [N-]=[N+]=NCCCC[C@H](N)C(=O)O; Nle = CCCC[C@H](N)C(=O)O; Pra = C#CC[C@H](N)C(=O)O; AEEA = NCCOCCOCC(=O)O
Readout: tissue uptake at 6 h (%ID/g)
Please give a number only; it is taken to be in %ID/g.

Query: Given CCCC[C@H](NC(C)=O)C(=O)N[C@H]1Cc2cn(nn2)CCCC[C@@H](C(=O)N[C@@H](CCCCNC(=O)COCCOCCNC(=O)CN2CCN(CC(=O)O)CCN(CC(N)=O)CCN(CC(=O)O)CC2)C(N)=O)NC(=O)[C@H](Cc2c[nH]c3ccccc23)NC(=O)[C@H](CCCNC(=N)N)NC(=O)[C@@H](Cc2ccccc2)NC(=O)[C@H](Cc2c[nH]cn2)NC1=O [[^203Pb]VMT01, metal not drawn] (Ac-[Nle][Pra]H[dF]RW[Lys(N3)]K([AEEA-X1])-NH2; triazole 2-7) , respond with its tissue uptake at 6 h.
Result: 0.37

====

Test: In vivo biodistribution of [^203Pb]VMT01 in B16-F10 melanoma xenograft model
Set-up: species or system athymic nude mice
Details: male, athymic nude, mouse, testes, intravenous, 74 KBq, total radioactivity, 1.5 h post-injection, tail vein, read-out: Biodistribution, Testes, Average
Where a SMILES comes first, the peptide text is derived from it. Bridges are numbered along the chain shown (N, C = ends). Triazole bridges read from a SMILES are 1,4-linked. Side-chain parts run from the residue outwards. [ ]: non-standard residue; d: D form. The star is where a group is joined. X1 = NC(=O)CN1CCN(CC(=O)O)CCN(CC(=O)*)CCN(CC(=O)O)CC1; Lys(N3) = [N-]=[N+]=NCCCC[C@H](N)C(=O)O; Nle = CCCC[C@H](N)C(=O)O; Pra = C#CC[C@H](N)C(=O)O; AEEA = NCCOCCOCC(=O)O
Readout: tissue uptake at 1.5 h
Give me the value, and tack the unit on after it.

Query: Respond only with tissue uptake at 1.5 h recorded for CCCC[C@H](NC(C)=O)C(=O)N[C@H]1Cc2cn(nn2)CCCC[C@@H](C(=O)N[C@@H](CCCCNC(=O)COCCOCCNC(=O)CN2CCN(CC(=O)O)CCN(CC(N)=O)CCN(CC(=O)O)CC2)C(N)=O)NC(=O)[C@H](Cc2c[nH]c3ccccc23)NC(=O)[C@H](CCCNC(=N)N)NC(=O)[C@@H](Cc2ccccc2)NC(=O)[C@H](Cc2c[nH]cn2)NC1=O [[^203Pb]VMT01, metal not drawn] (Ac-[Nle][Pra]H[dF]RW[Lys(N3)]K([AEEA-X1])-NH2; triazole 2-7)
Result: 0.1 %ID/g
